# System: MCF7
# protocolSummary: Cytotoxicity against human MCF7 cells assessed as reduction in cell viability measured after 72 hrs by SRB assay
# Assay type: functional, cell-based
# condition: MCF7, 72 h
Provide the reported IC50 of each item.
One number for each entry, in nM.

INSERT INTO results (smilesrecord, targetsystem, measurename, testvalue) VALUES
  ('O=c1c2ccccc2[nH]c2c([N+](=O)[O-])ccc(NCCCN3CCN(CCCNc4c5ccccc5nc5cccc([N+](=O)[O-])c45)CC3)c12', 'MCF7', 'IC50', 77),
  ('Cc1ccc(NCCCNCCCNc2c3ccccc3nc3cccc([N+](=O)[O-])c23)c2c(=O)c3ccccc3[nH]c12', 'MCF7', 'IC50', 228),
  ('O=c1c2ccccc2n2cnc3ccc(NCCNc4c5ccccc5nc5cccc([N+](=O)[O-])c45)c1c32', 'MCF7', 'IC50', 82);

Take each entry in turn and give its IC50.
1. CN(CCCNc1c2ccccc2nc2cccc([N+](=O)[O-])c12)CCCNc1ccc([N+](=O)[O-])c2[nH]c3ccc(O)cc3c(=O)c12
2. O=c1c2ccccc2n2cnc3ccc(NCCCN4CCN(CCCNc5c6ccccc6nc6cccc([N+](=O)[O-])c56)CC4)c1c32

1. 74
2. 82

Take each entry in turn and give its IC50.
1. CN(CCCNc1c2ccccc2nc2cccc([N+](=O)[O-])c12)CCCNc1ccc([N+](=O)[O-])c2[nH]c3ccccc3c(=O)c12
2. Cc1ccc([N+](=O)[O-])c2c(NCCCN3CCN(CCCNc4ccc5ncn6c7ccc(O)cc7c(=O)c4c56)CC3)c3ccccc3nc12

1. 695
2. 244

---

# Test system: PANC-1
# protocolSummary: Cytotoxicity against human PANC-1 cells assessed as reduction in cell viability measured after 72 hrs by SRB assay
# Type: functional, cell-based
# condition: PANC-1, 72 h
label 1 if IC50 is below 40 nM. label 0 if not; exact matches included in label 0.

Below are worked cases with known answers.
INSERT INTO assay_data (smilesrecord, label) VALUES
  ('O=c1c2ccccc2[nH]c2c([N+](=O)[O-])ccc(NCCCNCCNCCCNc3c4ccccc4nc4cccc([N+](=O)[O-])c34)c12', 'label 0'),
  ('Cc1ccc([N+](=O)[O-])c2c(NCCCN3CCN(CCCNc4ccc5ncn6c7ccc(O)cc7c(=O)c4c56)CC3)c3ccccc3nc12', 'label 0'),
  ('CN(CCCNc1c2ccccc2nc2cccc([N+](=O)[O-])c12)CCCNc1ccc([N+](=O)[O-])c2[nH]c3ccccc3c(=O)c12', 'label 1');

Check if IC50 falls below 40 nM for `O=c1c2ccccc2n2cnc3ccc(NCCNc4c5ccccc5nc5cccc([N+](=O)[O-])c45)c1c32` .
label 1

Check if IC50 falls below 40 nM for `Cc1cc(NCCCN(C)CCCNc2ccc3ncn4c5ccc(O)cc5c(=O)c2c34)c([N+](=O)[O-])c2cc3ccccc3nc12` .
label 0

Check if IC50 falls below 40 nM for `Cc1ccc([N+](=O)[O-])c2c(NCCCNCCCNc3ccc(C)c4[nH]c5ccccc5c(=O)c34)c3ccccc3nc12` .
label 0

Check if IC50 falls below 40 nM for `O=c1c2ccccc2n2cnc3ccc(NCCCN4CCN(CCCNc5c6ccccc6nc6cccc([N+](=O)[O-])c56)CC4)c1c32` .
label 1
